Please provide measured IC50 for the entries that follow.
- subject of test: BRD4 Bromodomain 2 (BRD4 BD2) (Homo sapiens, UniProt O60885)
- Construct: 333-460 were cloned, expressed, and purified to homogeneity
- procedure text: AlphaScreen binding assay, BRD4 BD2
- protocol conditions: His-tagged BRD4 BD2 100 nM, biotinylated H4 (1-21) K5/8/12/16 tetra-acetylated peptide 100 nM, compounds listed under IC50 range headings

Known results for molecules:
>>> result("COC(=O)N1c2ccc(-c3cnn(CCO)c3)c(Oc3ncccc3C(F)(F)F)c2CC[C@@H]1C")
"50 to 500 nM"
>>> result("COC(=O)N1c2ccc(-c3cnn(CCS(C)(=O)=O)c3)c(Oc3ncc(C4CC4)cn3)c2CC[C@@H]1C")
"50 to 500 nM"
>>> result("COC(=O)N1c2ccc(-c3cnn(CC(C)(C)O)c3)c(Oc3ccc(C(F)(F)F)cn3)c2CC[C@@H]1C")
"50 to 500 nM"
>>> result("COC(=O)N1c2ccc(-c3cnn(C4CCNCC4)c3)c(Oc3cccc(F)c3)c2CC[C@@H]1C")
"< 50 nM"
>>> result("COC(=O)N1c2ccc(-c3cnn(CCO)c3)c(Oc3ncccc3C#N)c2CC[C@@H]1C")
"50 to 500 nM"

[ask] Return reported IC50. Input molecule: COC(=O)N1c2ccc(-c3cnn(C4CC4)c3)c(Oc3ncc(C(F)(F)F)cn3)c2CC[C@@H]1C
[reply] 50 to 500 nM
